Biological target: UniProt:P28223
Sequence (P28223 whole entry): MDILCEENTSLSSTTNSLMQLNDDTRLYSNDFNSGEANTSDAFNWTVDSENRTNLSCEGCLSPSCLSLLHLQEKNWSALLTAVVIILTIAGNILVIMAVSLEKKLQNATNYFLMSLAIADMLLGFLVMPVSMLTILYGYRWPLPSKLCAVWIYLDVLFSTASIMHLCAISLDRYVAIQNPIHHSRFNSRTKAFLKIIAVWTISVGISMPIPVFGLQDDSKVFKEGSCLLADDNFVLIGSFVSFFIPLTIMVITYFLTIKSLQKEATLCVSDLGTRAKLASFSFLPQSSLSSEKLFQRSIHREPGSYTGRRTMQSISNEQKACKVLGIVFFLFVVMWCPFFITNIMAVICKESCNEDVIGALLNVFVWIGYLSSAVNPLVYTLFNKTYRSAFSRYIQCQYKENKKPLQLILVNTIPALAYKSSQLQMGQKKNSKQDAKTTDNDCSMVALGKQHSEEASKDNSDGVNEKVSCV
Assay: Displacement of [3H]ketanserin from cloned human 5HT2A receptor in […] cells
Would you kindly list pKi for each of these compounds?
To interpret pKi, take it as minus log10 of a concentration measured in moles per litre.

INPUT: Data request, read-out pKi, for O=C(N[C@H]1CCN(Cc2ccccc2)C1)c1cccc(-c2cccs2)c1
OUTPUT: 6.34

INPUT: Data request, read-out pKi, for O=C(N[C@H]1CCN(Cc2ccc(OC(F)(F)F)cc2)C1)c1cccc(-c2cccs2)c1
OUTPUT: 5.25

INPUT: Data request, read-out pKi, for O=C(N[C@H]1CCN(Cc2ccc(F)cc2)C1)c1ccc(-c2cccs2)cc1
OUTPUT: 7.85

INPUT: Data request, read-out pKi, for O=C(N[C@H]1CCN(Cc2ccccc2)C1)c1ccc(-c2cccs2)cc1
OUTPUT: 8.74

INPUT: Data request, read-out pKi, for O=C(N[C@H]1CCN(Cc2ccc(C(F)(F)F)cc2)C1)c1cccc(-c2cccs2)c1
OUTPUT: 6.13

INPUT: Data request, read-out pKi, for COc1cccc(CN2CC[C@H](NC(=O)c3ccc(-c4cccs4)cc3)C2)c1
OUTPUT: 7.66

INPUT: Data request, read-out pKi, for O=C(N[C@H]1CCN(Cc2ccc(Cl)c(Cl)c2)C1)c1ccc(-c2cccs2)cc1
OUTPUT: 7.66

INPUT: Data request, read-out pKi, for Cc1ccc(CN2CC[C@H](NC(=O)c3cccc(-c4cccs4)c3)C2)cc1
OUTPUT: 6.21

INPUT: Data request, read-out pKi, for O=C(N[C@H]1CCN(Cc2ccc(F)c(F)c2)C1)c1ccc(-c2cccs2)cc1
OUTPUT: 7.80

INPUT: Data request, read-out pKi, for O=C(N[C@H]1CCN(Cc2ccc(C(F)(F)F)cc2)C1)c1ccc(-c2cccs2)cc1
OUTPUT: 6.89

INPUT: Data request, read-out pKi, for O=C(N[C@H]1CCN(Cc2ccc(Cl)cc2)C1)c1cccc(-c2cccs2)c1
OUTPUT: 5.96

INPUT: Data request, read-out pKi, for O=C(N[C@H]1CCN(Cc2ccc(OC(F)(F)F)cc2)C1)c1ccc(-c2cccs2)cc1
OUTPUT: 6.85

----------
Target: Adrenergic receptor alpha-1 (Rattus norvegicus, UniProt P15823+P23944+P43140)
Test: Displacement of 7-methoxy-[3H]prazosin from adrenergic alpha-1 receptor in rat frontal cortex tissue
Type: tissue-based
Would you kindly list log10 of Ki for each of these compounds?
For clarity, the numbers are log10 values of Ki expressed in nM.

INPUT: Data request, read-out log10 of Ki, for COc1cccc(CN2CC[C@H](NC(=O)c3ccc(-c4cccs4)cc3)C2)c1
OUTPUT: 2.96

INPUT: Data request, read-out log10 of Ki, for O=C(N[C@H]1CCN(Cc2ccc3c(c2)OCO3)C1)c1ccc(-c2cccs2)cc1
OUTPUT: 2.60

INPUT: Data request, read-out log10 of Ki, for O=C(N[C@H]1CCN(Cc2ccc(C(F)(F)F)cc2)C1)c1cccc(-c2cccs2)c1
OUTPUT: 2.56

INPUT: Data request, read-out log10 of Ki, for Cc1ccc(CN2CC[C@H](NC(=O)c3cccc(-c4cccs4)c3)C2)cc1
OUTPUT: 1.90

INPUT: Data request, read-out log10 of Ki, for O=C(N[C@H]1CCN(Cc2ccccc2F)C1)c1ccc(-c2cccs2)cc1
OUTPUT: 3.84

INPUT: Data request, read-out log10 of Ki, for O=C(N[C@H]1CCN(Cc2ccc(OC(F)(F)F)cc2)C1)c1ccc(-c2cccs2)cc1
OUTPUT: 4.20

INPUT: Data request, read-out log10 of Ki, for O=C(N[C@H]1CCN(Cc2ccc(F)cc2)C1)c1ccc(-c2cccs2)cc1
OUTPUT: 2.62

INPUT: Data request, read-out log10 of Ki, for O=C(N[C@H]1CCN(Cc2ccc(Cl)c(Cl)c2)C1)c1ccc(-c2cccs2)cc1
OUTPUT: 3.70

INPUT: Data request, read-out log10 of Ki, for O=C(N[C@H]1CCN(Cc2ccc(F)c(F)c2)C1)c1ccc(-c2cccs2)cc1
OUTPUT: 4.00

INPUT: Data request, read-out log10 of Ki, for O=C(N[C@H]1CCN(Cc2ccc(OC(F)(F)F)cc2)C1)c1cccc(-c2cccs2)c1
OUTPUT: 3.08

INPUT: Data request, read-out log10 of Ki, for O=C(N[C@H]1CCN(Cc2ccc(Cl)cc2)C1)c1cccc(-c2cccs2)c1
OUTPUT: 2.34
